biological target: mouse FGFR3c-Fc (mouse, UniProt Q61851 21-369); assay: bead flow cytometry
Sequence (Q61851 21-369): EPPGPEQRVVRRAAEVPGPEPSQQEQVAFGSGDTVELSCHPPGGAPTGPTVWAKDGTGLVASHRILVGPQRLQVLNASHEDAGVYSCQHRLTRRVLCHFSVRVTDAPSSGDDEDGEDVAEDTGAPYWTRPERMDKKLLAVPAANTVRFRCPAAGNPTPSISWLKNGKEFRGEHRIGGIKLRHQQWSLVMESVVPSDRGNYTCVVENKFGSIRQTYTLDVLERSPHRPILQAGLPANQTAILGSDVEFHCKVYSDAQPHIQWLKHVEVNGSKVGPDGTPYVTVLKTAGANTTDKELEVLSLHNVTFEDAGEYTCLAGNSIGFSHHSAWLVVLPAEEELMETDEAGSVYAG

binder	unit_abbrev	Kd
GCCGAUGGUUUUGUGGCCGUUUGAGGUUCCUACGGC (structured_RNA, 2'-fluoro C and U; 3' inverted dT (not in string)) [iR3]	nM	36.6
